ASSAY PROTOCOL: Primary qHTS for inhibitors of MERS-S pseudo-typed particle cell entry (AID 1479149); note: nearly all actives have a fitted effect of over 60% in size
TEST PARAMETERS: MERS-S pseudotyped particle entry, luciferase; series mostly up to 57.1 µM
Results filed as inconclusive are left out. Activity calls are given as the source filed them. Calls come from the whole dose curve.

# COMPOUND, outcome
records = [
    ("CCCCC/C=C/C/C=C/CCCCCCCC(=O)O", "inactive"),
    ("C[C@@]12CCCCC[C@@H](Cc3ccc(O)cc31)[C@H]2N", "inactive"),
    ("CCCCOc1ccc(C[N+]2(C)C3CCC2CC(OC(=O)[C@H](CO)c2ccccc2)C3)cc1 (stereo partly drawn)", "inactive"),
    ("CC(=O)OCC(=O)[C@@]1(O)[C@H](C)C[C@H]2[C@@H]3C[C@H](F)C4=CC(=O)C=C[C@]4(C)[C@@]3(F)[C@@H](O)C[C@@]21C", "inactive"),
    ("CN(C)C(=O)c1cc2cnc(Nc3ccc(N4CCNCC4)cn3)nc2n1C1CCCC1", "inactive"),
    ("O=C(c1ccc(F)c(F)c1Nc1ccc(I)cc1F)N1CC(O)([C@@H]2CCCCN2)C1", "inactive"),
    ("CCCCCCCCCCCCCCCCCC(=O)NCCCC[C@H](NC(=O)CC[C@@H](NC(=O)[C@H](C)NC(=O)[C@@H](C)O[C@H]1[C@H](O)[C@@H](CO)OC(O)[C@@H]1NC(C)=O)C(N)=O)C(=O)O (stereo partly drawn)", "inactive"),
    ("COc1ccc(C(=O)Nc2ccccc2CCC2CCCCN2C)cc1 (stereo not drawn)", "inactive"),
]

The reported measurements were obtained from PubChem BioAssay (NCATS).
